The measurements presented in this section are drawn from PubChem BioAssay (Tox21).

MEASUREMENT_TARGET: Luciferin 4-monooxygenase (Photinus pyralis) (UniProt P08659)
Sequence (P08659 whole entry, looked up): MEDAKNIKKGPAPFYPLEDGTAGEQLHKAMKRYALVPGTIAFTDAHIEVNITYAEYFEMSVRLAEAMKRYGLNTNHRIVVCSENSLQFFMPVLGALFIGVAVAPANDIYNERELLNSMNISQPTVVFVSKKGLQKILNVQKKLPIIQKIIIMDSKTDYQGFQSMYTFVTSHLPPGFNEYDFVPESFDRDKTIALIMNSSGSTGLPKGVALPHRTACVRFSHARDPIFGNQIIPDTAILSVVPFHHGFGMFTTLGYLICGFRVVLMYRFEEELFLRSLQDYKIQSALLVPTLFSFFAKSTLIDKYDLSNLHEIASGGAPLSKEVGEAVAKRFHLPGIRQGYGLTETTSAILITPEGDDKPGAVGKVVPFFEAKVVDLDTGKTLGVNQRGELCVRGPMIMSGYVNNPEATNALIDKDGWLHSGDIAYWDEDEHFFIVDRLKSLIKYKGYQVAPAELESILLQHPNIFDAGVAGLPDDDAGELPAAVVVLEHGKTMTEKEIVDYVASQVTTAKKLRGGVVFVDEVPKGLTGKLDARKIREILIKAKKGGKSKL
PROTOCOL_NOTES: qHTS assay to identify small molecule inhibitors of firefly luciferase (AID 1224835); note: nearly all actives have a fitted effect of over 25% in size
DETAILS: purified P. pyralis luciferase, luminescence inhibition; series mostly up to 115 µM
Inconclusive results are not listed. Activity calls are given as the source filed them. Calls come from the whole dose curve; as a rule, active = well fitted inhibition curve with a large enough effect in the repeat runs; inconclusive = weak or mixed curves; inactive = flat fitted curve, though single readings scatter.
Outcomes: active, inactive

- COMPOUND: "BrC1CCC(Br)C(Br)CCC(Br)C(Br)CCC1Br (stereo not drawn)"
  ASSIGNED_LABEL: "inactive"
- COMPOUND: "CC(C)(C)c1cc(C(C)(C)C)c(O)c(C(C)(C)C)c1"
  ASSIGNED_LABEL: "inactive"
- COMPOUND: "Cc1cc(C2(c3cc(C)c(O)cc3C)OS(=O)(=O)c3ccccc32)c(C)cc1O"
  ASSIGNED_LABEL: "active"
